Target: serotonin 1A receptor (Rattus norvegicus, UniProt P19327)
Sequence (P19327 1-422): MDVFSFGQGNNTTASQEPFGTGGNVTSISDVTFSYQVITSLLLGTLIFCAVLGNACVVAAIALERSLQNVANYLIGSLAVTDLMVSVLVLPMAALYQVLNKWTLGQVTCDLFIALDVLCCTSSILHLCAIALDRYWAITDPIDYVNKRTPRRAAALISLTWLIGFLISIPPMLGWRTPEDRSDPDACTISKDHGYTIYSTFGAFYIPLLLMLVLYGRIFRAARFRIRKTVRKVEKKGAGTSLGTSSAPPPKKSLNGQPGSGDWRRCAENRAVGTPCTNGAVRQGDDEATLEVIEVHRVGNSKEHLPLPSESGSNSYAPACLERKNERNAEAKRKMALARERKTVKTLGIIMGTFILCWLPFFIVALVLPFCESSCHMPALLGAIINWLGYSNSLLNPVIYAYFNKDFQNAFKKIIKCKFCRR
Structures can show the parent of a compound that is named as a salt.
QUANTITY NAME: pKi
Quick note: pKi means taking -log10 of the concentration in moles per liter.

[
  {
    "MOLECULE": "CC(=O)NCc1ccc2ccn(C3CCN(CCc4cccc(F)c4)CC3)c2c1",
    "pKi": 8.72
  },
  {
    "MOLECULE": "CC(=O)N1CCC(CNC(=O)Cc2ccc3ccn(C4CCN(CCc5ccc(F)cc5)CC4)c3c2)CC1 [Example 343, Oxalate]",
    "pKi": 8.81
  },
  {
    "MOLECULE": "O=C(Cc1ccc2ccn(C3CCN(CCc4ccc(F)cc4)CC3)c2c1)NCc1ccccn1 [Example 341, Oxalate]",
    "pKi": 8.68
  },
  {
    "MOLECULE": "O=C(c1ccc2c(c1)N(C1CCN(CCc3ccc(F)cc3)CC1)CC2)n1cccc1",
    "pKi": 8.91
  },
  {
    "MOLECULE": "NC(=O)Cc1ccc2ccn(C3CCN(CCc4ccc(F)cc4)CC3)c2c1",
    "pKi": 10.22
  },
  {
    "MOLECULE": "CC(C)NC(=O)Cc1ccc2ccn(C3CCN(CCc4ccc(F)cc4)CC3)c2c1",
    "pKi": 8.43
  }
]

Let us examine a further case.
Lab entry: serotonin 1A receptor (Rattus norvegicus, UniProt P19327) assay, molecule COc1ccc2c(c1)CCCC2C1CCN(CCc2ccc(F)cc2)CC1 (centres unmarked) , pKi = 7.64
